Origin of values: paper PMC3578163

Measured On: hpol κ^19–526 (Homo sapiens)
Sequence (Q9UBT6 19-526): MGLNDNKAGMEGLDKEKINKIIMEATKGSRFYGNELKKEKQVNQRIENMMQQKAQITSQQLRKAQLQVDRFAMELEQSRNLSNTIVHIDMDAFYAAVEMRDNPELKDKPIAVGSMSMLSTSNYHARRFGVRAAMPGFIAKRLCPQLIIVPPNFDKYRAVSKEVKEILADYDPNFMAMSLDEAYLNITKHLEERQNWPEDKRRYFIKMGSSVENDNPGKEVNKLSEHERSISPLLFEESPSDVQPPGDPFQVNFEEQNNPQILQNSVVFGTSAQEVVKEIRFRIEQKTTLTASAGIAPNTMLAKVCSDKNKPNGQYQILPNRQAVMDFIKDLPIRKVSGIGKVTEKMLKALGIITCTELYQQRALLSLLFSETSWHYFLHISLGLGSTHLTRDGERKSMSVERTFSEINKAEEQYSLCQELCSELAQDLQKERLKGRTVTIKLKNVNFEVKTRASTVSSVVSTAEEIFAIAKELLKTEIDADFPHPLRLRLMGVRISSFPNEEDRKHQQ
Type: binding
Measurement Parameters: read-out: Kd,DNA (polymerase binding to primer-template DNA); 100 μM MK886

Entry Smiles	Kd
CC(C)c1ccc2c(c1)c(SC(C)(C)C)c(CC(C)(C)C(=O)O)n2Cc1ccc(Cl)cc1	31.3 nM
